Assay: protein stability index of a GFP-peptide fusion (GPS, HEK-293T) (PSI 1-6); higher = more stable;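 note: 24-mer peptide tiles fused after GFP, lentivirally expressed, FACS-sorted into six equal bins by GFP/DsRed ratio, decoded by Illumina sequencing, PSI is the read-weighted mean bin number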
Conditions: treatment: MLN4924 1 uM, 8 h; c terminus: a fixed tail appended
Recorded protein stability index by entry
Form field (numeric): enter value without unit.

# BIOPOLYMER_SEQUENCE, VALUE_KIND, ASSAY_VALUE
measured = [
    ("IAEDGTKEIESQGSIPGFLISSGM [TAF7L]", "protein stability index", 4.21),
    ("ALCQGLYFHINQTLREAHFHSLQH [FAM104A]", "protein stability index", 2.8),
    ("ISCFNNAPPAKLACPVCSKMVPRY [FAN1]", "protein stability index", 2.67),
    ("ECRSSVTSDSEGAHVNTLHSGTKR [PHTF1]", "protein stability index", 4.88),
    ("GLANSSRVRGRVGTIRPVRCPSSS [C22orf15]", "protein stability index", 4.23),
]

Query block: Look up protein stability index: GRVVPESQCQMETKPLAIHPCGDK [ADAMTSL2]
Result block: 4.71

Query block: // returns reported protein stability index for input ADRLVRVHGDPAVWWVSQFVKYLI [FUT8]
Result block: 2.11

Query block: Dear colleague, I am looking for the recorded protein stability index of the following sequence: FSQKSCLVAHQRYHTGKTPFVCPE [ZNF649]
Result block: 2.6

###

Experiment: protein stability index of a GFP-peptide fusion (GPS, HEK-293T) (PSI 1-6); higher = more stable
Conditions: treatment: DMSO; c terminus: a fixed tail appended
VALUE_KIND: protein stability index
The answer should be a number; do not append a unit.

Query block: Item under review: DIAAMTNSLFIDRQKCMAHRTRYP [TEKT4] . Reported protein stability index?
Result block: 2.45

Query block: Item RDYVRLFGIKCAKCQVGFSSSDLV [ISL2] has what recorded protein stability index?
Result block: 2.51

###

Assay: protein stability index of a GFP-peptide fusion (GPS, HEK-293T) (PSI 1-6); higher = more stable
Settings: treatment: DMSO; c terminus: a fixed tail appended
VALUE_KIND: protein stability index
// no unit string in output, number only

Reference set, count: 4
# BIOPOLYMER_SEQUENCE, protein stability index
data = [
    ("QERSRVLNQVADLLEQSLEEFAQA [ALDH8A1]", 3.94),
    ("IRERILGPSHPDTSYYIRYRGAVY [FEM1C]", 2.22),
    ("QALEQFAAAAAHSTPVRREVTDKE [EPB41L3]", 5.02),
    ("FSQYGRIITSRILVDQVTGVSRGV [ELAVL3]", 2.23),
]

Query block: GET /values?readout=protein stability index&item= SMLPPVNFSIVPYEKKFDTFIPLE [SPATS1]
Result block: 2.6

Query block: Any idea what protein stability index was measured for NKTKPIWTRNPDDITQEEYGEFYK [HSP90AB1] ?
Result block: 4.36

Query block: If you can, please state the reported protein stability index value of KEAQYIRTERVEQAFRAIDRGDYY [PCMTD1] .
Result block: 3.31

Query block: Item under review: TIDNDIVSMEIFFKAWLHNSGTDQ [M1AP] . Reported protein stability index?
Result block: 2.5

Query block: Entry under review: EREPVRGQCLDSTDQLEFTVEPRL [RTN2] . Reported protein stability index?
Result block: 4.78

Query block: Query: protein stability index; subject: IGDFGISKILSSKSKAYTVVGTPC [NEK8]
Result block: 2.35

Query block: Suppose we examine the sequence AQGFAADVRLMFSNCYKYNPPDHE [BRD3] ; what protein stability index value has been reported?
Result block: 2.99

Query block: Give its protein stability index value. Item: MVFEVLGHHLLKWIIKSNYQGLPV [SRPK2]
Result block: 2.91

Query block: Return reported protein stability index; argument: GAYIGEGRVEVLKNGEWGTVCDDK [LOXL2]
Result block: 4.99

Query block: Any idea what protein stability index was measured for KETLAVNYEKEEEFLTNELSRKLM [CCDC6] ?
Result block: 4.05

Query block: Reported protein stability index for KIKPEARRYLEKSIKMGKRNGLHL [NLN] : what is it?
Result block: 2.3

Query block: Could you tell me which protein stability index is on file for FKGNKYWAVQGQNVLHGYPKDIYS [MMP1] ?
Result block: 2.3

Query block: # lookup: protein stability index of EELMLVHSLEYIDLMETTQYMNEG [HDAC6]
Result block: 3.5

Query block: Value lookup for protein stability index; key = MDSRTVFGAWRCLLDATVAGGQTR [FCHSD1]
Result block: 1.92

###

protein stability index values by entry
Assay: protein stability index of a GFP-peptide fusion (GPS, HEK-293T) (PSI 1-6); higher = more stable
Conditions: treatment: DMSO; c terminus: a fixed tail appended

Example entries begin here.
# BIOPOLYMER_SEQUENCE, VALUE_KIND, ASSAY_VALUE
data = [
    ("VWDASRAPRGTPDPGLGEGPALWL [PLEKHN1]", "protein stability index", 2.74),
    ("SENKIVGIGYNGMPNGCSDDVLPW [DCTD]", "protein stability index", 3.46),
]

Query block: Which protein stability index value belongs to SKYADLSDAANRNHEALRQAKQEM [PRPH] ?
Result block: 4.77

Query block: # protein stability index lookup, item AMRAGVLADDHLIEVNGENVEDAS [PDZK1]
Result block: 5.41

Query block: Quick check: protein stability index of YDPRFNSWIQLPPMQERRASFYAC [KLHL14] ?
Result block: 2.14

Query block: Using the record for AAVSRKKKRRMGTYSLVPKKKTKV [EHMT1] , report its protein stability index.
Result block: 4.29

Query block: Entry VDRTHALMKKIGQCPMRVQKEVAG [CRYL1] : reported protein stability index = ?
Result block: 3.45

###

Entries and their measured protein stability index follow.
Assay: protein stability index of a GFP-peptide fusion (GPS, HEK-293T) (PSI 1-6); higher = more stable
Details: treatment: DMSO; c terminus: a fixed tail appended
Write no unit; give the number alone.

Query block: Tell me the measured protein stability index of ELNHGRQGENQEHLVIAEMMELGS [FATE1] , please.
Result block: 4.3

###

Assay: protein stability index of a GFP-peptide fusion (GPS, HEK-293T) (PSI 1-6); higher = more stable
Settings: treatment: DMSO; c terminus: a fixed tail appended
Short version: protein stability index at least 3 is True, less is False.

Examples from the recorded data:
# BIOPOLYMER_SEQUENCE, ASSIGNED_CATEGORY
records = [
    ("LPNYNWNSFGLRFGKREAAPGNHG [KISS1]", "True"),
    ("FYSAYLVAEKVVVITKHNDDEQYA [HSP90AB1]", "False"),
    ("GLGLPMSRSQNTDMVQKSVSKTLP [CLINT1]", "True"),
    ("YFLRGSLPWQGLKADTLKERYQKI [CSNK1G3]", "False"),
    ("GGAQASGTLIGVGQSVTAVGRIIA [MFSD9]", "True"),
]

Query block: Determine whether this sequence has protein stability index no lower than 3: VQLATLAQRVKEVLPHVPLGVIQR [AUP1]
Result block: False

Query block: Threshold query (protein stability index >= 3) on GVIQSVSSWKHGSGTQYVSTRQTQ [C18orf25]
Result block: True

Query block: Could you please find out whether WGPWGPWGDCSRTCGGGVQFSSRD [ADAMTS4] has protein stability index that meets 3 or exceeds it?
Result block: False

Query block: // inclusive: protein stability index at least 3? input: VKYNSCADRPFSAPWWFWLSLTGV [POMT2]
Result block: False

###

Assay: protein stability index of a GFP-peptide fusion (GPS, HEK-293T) (PSI 1-6); higher = more stable
Conditions: treatment: DMSO; c terminus: a fixed tail appended
Known protein stability index of a selection of sequences
No unit in the answer, please; the number alone is enough.

Query block: Consider the sequence KELGQSQKEQGLSDNILSPVMNGG [PDZK1] and give its measured protein stability index.
Result block: 4.73

Query block: Reported protein stability index, sequence CLTCGKSFRQGMHLTRHQRTHTGE [ZNF263] : ____
Result block: 4.03

Query block: # protein stability index lookup, item NQAPSGPVASSGEFFGSASQPAVE [CLINT1]
Result block: 5.16

Query block: Which protein stability index is reported for this sequence? ALHCPTGTEYTCKVYPVQEALAVL [TRIB3]
Result block: 2.27

Query block: I am curious: what protein stability index value has been reported for RPQSAQSSFPPSPGPSPDVQLATL [AUP1] ?
Result block: 4.34

Query block: Request the reported protein stability index associated with WDMNSAPRLVSETAERKQEQKTGT [MFSD9]
Result block: 5.44

Query block: Query (sequence): VSITLLALVYLPGVIAAIVQLHNG [STEAP1] ; field requested: protein stability index
Result block: 3.5
